# Test system: MCF7
# protocol: Cytotoxicity against human MCF7 cell line by MTT assay
# Type: functional, cell-based
Consider the following compounds and their measured IC50 readings.

{"compound": "CCOc1ccc(/N=C2/S/C(=C\\c3ccc(N(C)C)cc3)C(=O)N2CC)cc1", "IC50": "> 20 µM"}
{"compound": "O=C(O)c1cccc(-c2ccc(/C=N/Nc3nc4nonc4nc3Nc3ccc(F)cc3)o2)c1", "IC50": "19 µM"}
{"compound": "Cc1ccc(NC(=O)CN2C(=O)N/C(=C\\c3cccn3-c3cccc(C(=O)O)c3)C2=O)cc1", "IC50": "> 20 µM"}
{"compound": "CS(=O)(=O)Nc1ccc(C2=NN(C(=O)CCCC(=O)O)C(c3ccco3)C2)cc1 (stereo not given)", "IC50": "> 20 µM"}
{"compound": "Nc1nc(O)c2nc(CCCNc3ccc(C(=O)NC(CCC(=O)O)C(=O)O)cc3)cnc2n1 (stereo not given)", "IC50": "> 20 µM"}

---

# Tested on: MDA-MB-435
# protocol: Cytotoxicity against human MDA-MB-435 cell line at 20 uM by MTT assay
# Format: functional
endpoint.name: inhibition at 20 µM (%)

{"smiles.code": "CC1=NN(c2ccc(S(N)(=O)=O)cc2)C(=O)/C1=C\\c1ccc(-c2ccccc2C(=O)O)o1", "reported": 24}
{"smiles.code": "O=C(CSc1nnn(-c2ccc(O)cc2)n1)NCc1cccc(C(=O)O)c1", "reported": 9}
{"smiles.code": "COc1cc(/C=C2/NC(=O)N(CC(=O)Nc3ccc(C)cc3)C2=O)ccc1OCc1cccc(C(=O)O)c1", "reported": 26}
{"smiles.code": "COc1cc(O)c(Cl)cc1/C=C1\\S/C(=N/c2cccc(C(=O)O)c2)N(C)C1=O", "reported": 3}
{"smiles.code": "CCOc1cc(/C=C2/S/C(=N\\c3ccc(C(=O)O)cc3)N(C)C2=O)ccc1O", "reported": 94}

---

# measurement.target: Integrin alpha-V/beta-3 (Homo sapiens, UniProt P05106+P06756)
# Sequence (P05106 27-788 limits assumed): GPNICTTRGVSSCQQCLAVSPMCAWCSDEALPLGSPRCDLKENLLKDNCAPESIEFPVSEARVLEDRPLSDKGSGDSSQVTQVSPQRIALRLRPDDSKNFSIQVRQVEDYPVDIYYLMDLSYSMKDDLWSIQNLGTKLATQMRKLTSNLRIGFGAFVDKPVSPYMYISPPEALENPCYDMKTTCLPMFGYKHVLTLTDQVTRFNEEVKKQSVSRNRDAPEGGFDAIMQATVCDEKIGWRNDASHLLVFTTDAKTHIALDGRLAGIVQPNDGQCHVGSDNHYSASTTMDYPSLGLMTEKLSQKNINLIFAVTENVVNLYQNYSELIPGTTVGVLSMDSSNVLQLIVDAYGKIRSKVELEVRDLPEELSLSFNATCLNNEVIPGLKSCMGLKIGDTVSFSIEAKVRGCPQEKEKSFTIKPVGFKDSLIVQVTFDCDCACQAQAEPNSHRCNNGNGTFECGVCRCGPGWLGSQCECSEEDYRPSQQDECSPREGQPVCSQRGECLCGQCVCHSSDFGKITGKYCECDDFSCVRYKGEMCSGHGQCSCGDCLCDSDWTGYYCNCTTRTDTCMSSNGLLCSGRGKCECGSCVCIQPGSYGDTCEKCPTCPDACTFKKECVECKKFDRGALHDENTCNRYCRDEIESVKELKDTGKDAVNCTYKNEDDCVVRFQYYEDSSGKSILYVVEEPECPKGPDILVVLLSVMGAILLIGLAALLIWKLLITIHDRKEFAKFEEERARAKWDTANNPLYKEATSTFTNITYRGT
# Sequence (P06756 31-889 limits assumed): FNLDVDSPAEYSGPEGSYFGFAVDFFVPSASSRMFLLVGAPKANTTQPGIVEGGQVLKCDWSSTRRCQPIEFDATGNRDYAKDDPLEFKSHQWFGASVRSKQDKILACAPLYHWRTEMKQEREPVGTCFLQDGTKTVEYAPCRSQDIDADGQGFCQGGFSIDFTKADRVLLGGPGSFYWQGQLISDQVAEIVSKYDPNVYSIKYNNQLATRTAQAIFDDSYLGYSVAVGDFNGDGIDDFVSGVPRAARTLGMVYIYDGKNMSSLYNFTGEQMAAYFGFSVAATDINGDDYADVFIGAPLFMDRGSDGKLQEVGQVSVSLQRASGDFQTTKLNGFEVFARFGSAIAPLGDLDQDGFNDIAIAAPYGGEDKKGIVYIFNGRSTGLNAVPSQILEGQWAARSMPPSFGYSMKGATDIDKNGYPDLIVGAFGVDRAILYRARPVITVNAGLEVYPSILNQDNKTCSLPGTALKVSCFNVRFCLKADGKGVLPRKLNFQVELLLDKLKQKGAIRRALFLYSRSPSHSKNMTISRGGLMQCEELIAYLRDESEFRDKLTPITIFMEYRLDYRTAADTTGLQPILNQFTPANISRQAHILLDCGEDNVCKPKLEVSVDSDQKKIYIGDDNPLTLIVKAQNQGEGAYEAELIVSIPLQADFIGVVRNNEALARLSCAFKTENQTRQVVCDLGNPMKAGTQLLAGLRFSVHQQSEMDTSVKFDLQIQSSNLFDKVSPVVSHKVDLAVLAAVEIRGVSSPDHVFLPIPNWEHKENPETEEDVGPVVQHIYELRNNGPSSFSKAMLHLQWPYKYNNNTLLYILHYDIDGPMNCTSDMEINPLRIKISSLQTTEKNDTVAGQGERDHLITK
# Sequence (P06756 891-1048 limits assumed): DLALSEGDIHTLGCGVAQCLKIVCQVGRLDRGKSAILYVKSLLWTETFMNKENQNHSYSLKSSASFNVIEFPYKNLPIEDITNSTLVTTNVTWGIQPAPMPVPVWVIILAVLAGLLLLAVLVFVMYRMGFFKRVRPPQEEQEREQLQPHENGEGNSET
# protocol: Inhibition of [125I]echistatin binding to integrin alphaVbeta3 receptor
pIC50: −log10 of the molar value.

{"smiles.code": "CN(C)c1ccc(/C=C2\\SC(=Nc3ccc(O)cc3)NC2=O)cc1", "measurement.target": "Integrin alpha-V/beta-3 (Homo sapiens, UniProt P05106+P06756)", "pIC50": "< 6.00"}
{"smiles.code": "O=C(O)c1cccc(-c2ccc(/C=N/Nc3nc4nonc4nc3Nc3ccc(F)cc3)o2)c1", "measurement.target": "Integrin alpha-V/beta-3 (Homo sapiens, UniProt P05106+P06756)", "pIC50": "< 6.00"}
{"smiles.code": "CCOc1cc(/C=C2/S/C(=N\\c3ccc(C(=O)O)cc3)N(C)C2=O)ccc1O", "measurement.target": "Integrin alpha-V/beta-3 (Homo sapiens, UniProt P05106+P06756)", "pIC50": 6.62}

---

# Test system: MCF7
# protocol: Cytotoxicity against human MCF7 cell line by MTT assay
# Type: functional, cell-based
pIC50: −log10 of the molar value.

{"smiles.code": "O=C(O)c1ccc(-c2ccc(/C=N/Nc3nc(Nc4ccccc4)nc(Nc4ccccc4)n3)o2)cc1", "pIC50": "< 4.70"}
{"smiles.code": "CN(C)c1ccc(/C=C2\\SC(=Nc3ccc(O)cc3)NC2=O)cc1", "pIC50": "< 4.70"}
{"smiles.code": "CC1=NN(c2ccc(C(=O)O)cc2)C(=O)/C1=C/c1ccc(-c2ccc(S(N)(=O)=O)cc2)o1", "pIC50": 4.72}
{"smiles.code": "COc1cc(Cl)c(/C=C2\\S/C(=N/c3cccc(C(=O)O)c3)N(C)C2=O)cc1OC", "pIC50": "< 4.70"}
{"smiles.code": "CCOc1cc(/C=C2/S/C(=N\\c3ccc(C(=O)O)cc3)N(C)C2=O)ccc1O", "pIC50": "< 4.70"}
